Attribution: patent US12441768B2

target: β-catenin (Homo sapiens); test: KD50 measurement using competitive fluorescence polarization (FP) with labelled TCF4; assay type: binding; settings: fluorescence polarization, β-catenin
Sequence (P35222 whole entry): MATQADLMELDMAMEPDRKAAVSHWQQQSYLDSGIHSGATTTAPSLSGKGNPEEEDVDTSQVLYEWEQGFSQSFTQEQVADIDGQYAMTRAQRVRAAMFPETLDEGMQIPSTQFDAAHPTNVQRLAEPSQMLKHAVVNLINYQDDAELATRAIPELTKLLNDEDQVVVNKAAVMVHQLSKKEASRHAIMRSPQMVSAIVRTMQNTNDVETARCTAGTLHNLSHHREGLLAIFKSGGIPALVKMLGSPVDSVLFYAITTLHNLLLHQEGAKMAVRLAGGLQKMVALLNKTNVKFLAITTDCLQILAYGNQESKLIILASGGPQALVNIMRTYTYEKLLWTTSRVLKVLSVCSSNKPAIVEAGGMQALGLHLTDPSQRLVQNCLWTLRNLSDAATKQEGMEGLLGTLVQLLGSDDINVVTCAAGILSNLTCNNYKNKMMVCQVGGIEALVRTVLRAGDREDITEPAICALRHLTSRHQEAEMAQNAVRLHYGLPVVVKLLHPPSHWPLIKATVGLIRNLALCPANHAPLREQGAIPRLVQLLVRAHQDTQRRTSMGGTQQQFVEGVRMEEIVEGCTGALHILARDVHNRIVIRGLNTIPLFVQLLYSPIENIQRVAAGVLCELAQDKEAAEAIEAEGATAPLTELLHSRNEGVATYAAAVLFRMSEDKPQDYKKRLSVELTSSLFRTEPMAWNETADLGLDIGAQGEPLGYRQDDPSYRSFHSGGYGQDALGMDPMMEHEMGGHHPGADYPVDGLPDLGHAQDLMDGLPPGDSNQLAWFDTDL
Where a SMILES comes first, the peptide text is derived from it.
VALUE KIND: β-Cat FP Hill slope
Please respond with just the number, no unit label.

For orientation, consider the following solved cases.
CC[C@H](C)[C@H](NC(=O)[C@H](CC(C)C)NC(=O)[C@H](CC(C)C)NC(=O)[C@H](Cc1c[nH]c2ccccc12)NC(=O)[C@H](CCSC)NC(C)=O)C(=O)N[C@@H](CO)C(=O)N[C@@H](Cc1ccccc1)C(=O)N[C@@H](Cc1c[nH]c2ccccc12)C(=O)NCC(=O)O [compound 218] (Ac-MWLLISFWG-OH)	1.85
CC[C@H](C)[C@H](NC(=O)[C@H](CC(C)C)NC(=O)[C@@H](NC(=O)[C@H](Cc1c[nH]c2ccccc12)NC(=O)[C@H](CCSC)NCc1ccccc1)[C@@H](C)CC)C(=O)N[C@@H](CO)C(=O)N[C@@H](Cc1ccccc1)C(=O)N[C@@H](Cc1c[nH]c2ccccc12)C(=O)NCC(=O)O [compound 223] (HELM PEPTIDE1{[CSCC[C@H](NCc1ccccc1)C(=O)[*:2]].W.I.L.I.S.F.W.G}$$$$V2.0)	0.7
CC[C@H](C)[C@@H]1NC(=O)[C@H](CC(C)C)NC(=O)[C@H](Cc2ccccc2)NC(=O)[C@H](Cc2c[nH]c3ccccc23)NC(=O)[C@H](CCSC)NC(=O)[C@@H](N)CCCCNC(=O)C[C@@H](C(=O)O)NC(=O)[C@H](Cc2c[nH]c3ccccc23)NC(=O)[C@H](Cc2ccccc2)NC(=O)[C@H](CS)NC1=O [compound 170] (HELM PEPTIDE1{K.M.W.F.L.I.C.F.W.D}$PEPTIDE1,PEPTIDE1,1:R3-10:R3$$$V2.0)	0.7
CC[C@H](C)[C@H](NC(=O)[C@H](CO)NC(=O)[C@H](CCC(=O)O)NC(=O)[C@H](Cc1c[nH]c2ccccc12)NC(=O)[C@@H](N)CCSC)C(=O)N[C@@H](CC(C)C)C(=O)N[C@@H](CC(=O)O)C(=O)N[C@@H](CCC(=O)O)C(=O)N[C@@H](Cc1c[nH]cn1)C(=O)N[C@@H](CCSC)C(=O)N[C@@H](CCC(N)=O)C(=O)N[C@@H](CCCNC(=N)N)C(=O)N[C@H](C(=O)N[C@@H](Cc1c[nH]c2ccccc12)C(=O)N[C@@H](CCCNC(=N)N)C(=O)NCC(=O)O)C(C)C [compound 23] (H-MWESILDEHMQRVWRG-OH)	0.71
CC[C@H](C)[C@@H]1NC(=O)[C@H](CC(C)C)NC(=O)[C@H](Cc2ccccc2)NC(=O)[C@H](Cc2c[nH]c3ccccc23)NC(=O)[C@@H](N)CCCCNC(=O)CC[C@@H](C(=O)N[C@@H](Cc2c[nH]c3ccccc23)C(=O)NCC(=O)O)NC(=O)[C@H](CS)NC1=O [compound 173] (HELM PEPTIDE1{K.W.F.L.I.C.E.W.G}$PEPTIDE1,PEPTIDE1,1:R3-7:R3$$$V2.0)	0.7
CC[C@H](C)[C@H](NC(=O)[C@@H]1CCC(=O)NCCCC[C@H](N)C(=O)N[C@@H](Cc2c[nH]c3ccccc23)C(=O)N[C@@H](Cc2ccccc2)C(=O)N1)C(=O)N[C@@H](CO)C(=O)N[C@@H](Cc1ccccc1)C(=O)N[C@@H](Cc1c[nH]c2ccccc12)C(=O)NCC(=O)O [compound 208] (HELM PEPTIDE1{K.W.F.E.I.S.F.W.G}$PEPTIDE1,PEPTIDE1,1:R3-4:R3$$$V2.0)	0.69
CC[C@H](C)[C@@H]1NC(=O)[C@H](CC(C)C)NC(=O)[C@H](Cc2ccccc2)NC(=O)[C@H](Cc2c[nH]c3ccccc23)NC(=O)[C@@H](N)CCCCNC(=O)CC[C@@H](C(=O)O)NC(=O)[C@H](Cc2c[nH]c3ccccc23)NC(=O)[C@H](Cc2ccccc2)NC(=O)[C@H](C)NC1=O [compound 201] (HELM PEPTIDE1{K.W.F.L.I.A.F.W.E}$PEPTIDE1,PEPTIDE1,1:R3-9:R3$$$V2.0)	0.7
CC[C@H](C)[C@H](NC(=O)[C@H](CC(C)C)NC(=O)[C@@H]1CCC(=O)NCCCC[C@H](N)C(=O)N[C@@H](Cc2c[nH]c3ccccc23)C(=O)N1)C(=O)N[C@@H](CO)C(=O)N[C@@H](Cc1ccccc1)C(=O)N[C@@H](Cc1c[nH]c2ccccc12)C(=O)NCC(=O)O [compound 232] (HELM PEPTIDE1{K.W.E.L.I.S.F.W.G}$PEPTIDE1,PEPTIDE1,1:R3-3:R3$$$V2.0)	2.73

Determine its reported β-Cat FP Hill slope: CC[C@H](C)[C@H](NC(=O)[C@H](CC(C)C)NC(=O)C(C)(Cc1ccccc1)NC(=O)[C@H](Cc1c[nH]c2ccccc12)NC(=O)[C@@H](N)CCSC)C(=O)N[C@@H](CS)C(=O)N[C@@H](Cc1ccccc1)C(=O)N[C@@H](Cc1c[nH]c2ccccc12)C(=O)NCC(=O)O (stereo partly shown) [compound 131] (HELM PEPTIDE1{M.W.[CC(Cc1ccccc1)(N[*:1])C(=O)[*:2]].L.I.C.F.W.G}$$$$V2.0)
1.27

Determine its reported β-Cat FP Hill slope: CC[C@H](C)[C@H](NC(=O)[C@H](CC(C)C)NC(=O)[C@H](Cc1ccccc1)NC(=O)[C@H](Cc1c[nH]c2ccccc12)NC(C)=O)C(=O)N[C@@H](CO)C(=O)N[C@@H](Cc1ccccc1)C(=O)N[C@@H](Cc1c[nH]c2ccccc12)C(=O)NCC(=O)O [compound 220] (Ac-WFLISFWG-OH)
2.99
